- system.under.test: Human factor D (Homo sapiens (Human))
- run.description: Human Factor D Assay
- Format: biochemical
- condition.description: human factor D 80 nM, substrate Z-L-Lys-SBzl, DTNB
pIC50: −log10 of the molar value.
readout.type: pIC50

Challenge: What does the record list as pIC50 for NC(=O)c1nn(CC(=O)N2C[C@H](F)C[C@H]2C(=O)Nc2ccccc2N2CCOC2=O)c2ccc(-c3ccnnc3)cc12 ?
Response given: < 5.00

Challenge: Then what about the compound NC(=O)c1nn(CC(=O)N2C[C@H](F)C[C@H]2C(=O)Nc2cccc(Br)n2)c2ccc(-c3ccnnc3)cc12 ?
Response given: > 6.00

Challenge: Please give the result for COc1ncc(-c2ccc3c(c2)c(C(N)=O)nn3CC(=O)N2C[C@H](F)C[C@H]2C(=O)Nc2cccc(Cl)n2)cn1 too.
Response given: > 6.00

Challenge: Likewise for CC(=O)c1cn(CC(=O)N2C[C@H](F)C[C@H]2C(=O)Nc2nc(-c3c(C)nc4sccn34)cs2)c2ccc(-c3ccnnc3)cc12 ?
Response given: < 5.00

Challenge: How about CC(=O)c1cn(CC(=O)N2C[C@H](F)C[C@H]2C(=O)Nc2cccc(-c3ccccc3Cl)c2F)c2ccc(N3CCN(c4ncc(F)cn4)CC3)cc12 ?
Response given: > 6.00

Challenge: Try this compound next: NC(=O)c1nn(CC(=O)N2C[C@H](F)C[C@H]2C(=O)Nc2cncc(Cl)n2)c2ccc(-c3ccnnc3)cc12
Response given: > 6.00

---

Entries and their pIC50
- system.under.test: Human factor D (Homo sapiens (Human), UniProt P00746)
- Sequence (P00746 26-253): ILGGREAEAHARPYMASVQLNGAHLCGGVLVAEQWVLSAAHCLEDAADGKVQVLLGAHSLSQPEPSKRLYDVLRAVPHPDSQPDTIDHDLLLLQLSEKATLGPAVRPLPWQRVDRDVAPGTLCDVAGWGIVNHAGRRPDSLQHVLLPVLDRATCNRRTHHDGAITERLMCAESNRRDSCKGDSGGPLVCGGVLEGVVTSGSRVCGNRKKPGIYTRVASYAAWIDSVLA
- run.description: Human Factor D Assay
- Assay type: biochemical
- condition.description: human factor D 80 nM, substrate Z-L-Lys-SBzl, DTNB
pIC50: −log10 of the molar value.

{"columns": ["molecule", "pIC50"],
 "data": [
  ["CC(=O)c1cn(CC(=O)N2C[C@H](F)C[C@H]2C(=O)Nc2cc(C)nc3nc(C(F)(F)F)nn23)c2ccc(-c3ccnnc3)cc12", "< 5.00"],
  ["COc1cc(C)cc2c1OCCC2NC(=O)[C@@H]1C[C@@H](F)CN1C(=O)Cn1cc(C(C)=O)c2cc(-c3ccnnc3)ccc21 (stereo partly drawn)", "< 5.00"],
  ["CC(=O)c1nn(CC(=O)N2C[C@H](F)C[C@H]2C(=O)Nc2cccc(-c3ccccc3Cl)c2F)c2ccc(-c3cnc(C)nc3)cc12", "> 6.00"],
  ["CC(=O)c1cn(CC(=O)N2C[C@H](F)C[C@H]2C(=O)Nc2ccc3c(c2)OC(C)(C)C3)c2ccc(-c3ccnnc3)cc12", "> 6.00"],
  ["NC(=O)c1nn(CC(=O)N2C[C@H](F)C[C@H]2C(=O)NCc2cccc(Cl)c2)c2ccc(-c3ccnnc3)cc12", "> 6.00"]
]}

Challenge: Name the recorded pIC50 for NC(=O)c1nn(CC(=O)N2C[C@H](F)C[C@H]2C(=O)N[C@@H]2CCC[C@@H]2OCc2ccccc2)c2ccc(-c3ccnnc3)cc12 .
Response given: < 5.00

---

- system.under.test: Human factor D (Homo sapiens (Human))
- run.description: Human Factor D Assay
- Assay type: biochemical
pIC50: −log10 of the molar value.
readout.type: pIC50

{"columns": ["compound", "pIC50"],
 "data": [
  ["NC(=O)c1nn(CC(=O)N2C[C@H](F)C[C@H]2C(=O)NCc2ccccn2)c2ccc(-c3ccnnc3)cc12", "5.00 to 6.00"],
  ["CC(=O)c1cn(CC(=O)N2C[C@H](F)C[C@H]2C(=O)NC2CCCN(c3cnn(C)c3)C2)c2ccc(-c3ccnnc3)cc12 (stereo partly drawn)", "5.00 to 6.00"]
]}

Challenge: Given the entry CC(=O)c1cn(CC(=O)N2C[C@H](F)C[C@H]2C(=O)NC2CCCN(c3cc(C)ccc3F)C2=O)c2ccc(-c3ccnnc3)cc12 (stereo partly drawn) , what pIC50 was observed with Human factor D (Homo sapiens (Human))?
Response given: 5.00 to 6.00
